- systemUnderTest: Activated CDC42 kinase 1 (Homo sapiens)
- condition: at 10 µM
Please assign Not fulfilled whenever residual activity is at or above 60%, and Fulfilled whenever it is below.

Below, 2 molecules whose answers are already recorded.
>>> labelvalue("O=c1c(-c2ccc(F)cc2)c(-c2ccncc2)[nH]n1-c1ccc(Cl)cc1")
"Not fulfilled"
>>> labelvalue("Cn1sc(=O)n(Cc2ccccc2)c1=O")
"Not fulfilled"

Please state whether residual activity is below 60% for "O=C(Nc1ccc(Cl)cc1)c1ccccc1NCc1ccncc1" Not fulfilled

Please state whether residual activity is below 60% for "COc1cc2nccc(Oc3ccc(NC(=O)Nc4cc(C)on4)c(Cl)c3)c2cc1OC" Fulfilled

Please state whether residual activity is below 60% for "Nc1nccc(-c2c(-c3ccc(F)cc3)ncn2C2CCNCC2)n1" Fulfilled

Please state whether residual activity is below 60% for "CCCCc1c(-c2ccc(O)cc2)[nH]c2nccnc12" Fulfilled

Please state whether residual activity is below 60% for "O=C1C(Cl)=C(N2C(=O)CCC2=O)C(=O)c2ccccc21" Not fulfilled

Please state whether residual activity is below 60% for "Cn1c2ccccc2c2c3c(c4c5ccccc5n(CCC#N)c4c21)CNC3=O" Fulfilled

Please state whether residual activity is below 60% for "COc1ccc(Cl)cc1NC(=O)Nc1cc(C)nc2ccccc12" Not fulfilled

Please state whether residual activity is below 60% for "O=C(Nc1nc2ccccc2n1CCN1CCOCC1)c1cccc([N+](=O)[O-])c1" Fulfilled

----------
- systemUnderTest: Fibroblast growth factor receptor 1 (Homo sapiens)
- condition: at 10 µM
measureName: residual activity (%)
Answers are plain numbers, in %.

Reference set, count: 3
>>> recordedmeasurement("Cn1sc(=O)n(Cc2ccccc2)c1=O")
86
>>> recordedmeasurement("O=C1NC(=O)C(c2cn(CCCn3ccnc3)c3ccccc23)=C1Nc1ccccc1")
17
>>> recordedmeasurement("NC(=O)c1cccc(-c2cc(Nc3ccc(OC(F)(F)F)cc3)ncn2)c1")
92

Below is a list of compounds. For each, state its recorded residual activity.
1. CCOC(=O)c1c(C)[nH]c(/C=C2\C(=O)Nc3ccccc32)c1C
2. Nc1nccc(-c2c(-c3ccc(F)cc3)ncn2C2CCNCC2)n1

1: 80; 2: 27

Below is a list of compounds. For each, state its recorded residual activity.
1. O=C(NC(NC(=S)Nc1ccc(F)c([N+](=O)[O-])c1)C(Cl)(Cl)Cl)C(c1ccccc1)c1ccccc1 (stereo unspecified)
2. O=C(Nc1ccc(Cl)cc1)c1ccccc1NCc1ccncc1
3. O=c1c(-c2ccc(F)cc2)c(-c2ccncc2)[nH]n1-c1ccc(Cl)cc1
4. CCCCc1c(-c2ccc(O)cc2)[nH]c2nccnc12
5. COc1cc2ncnc(Nc3cccc(Cl)c3)c2cc1OC
6. CC(C)c1nn(-c2c(Cl)cccc2Cl)c2nc(Cc3ccc(OCCO)cc3)[nH]c(=O)c12

1. 59
2. 10
3. 40
4. 11
5. 32
6. 27

----------
- systemUnderTest: Ephrin type-A receptor 3 (Homo sapiens) (UniProt P29320)
- Sequence (whole entry): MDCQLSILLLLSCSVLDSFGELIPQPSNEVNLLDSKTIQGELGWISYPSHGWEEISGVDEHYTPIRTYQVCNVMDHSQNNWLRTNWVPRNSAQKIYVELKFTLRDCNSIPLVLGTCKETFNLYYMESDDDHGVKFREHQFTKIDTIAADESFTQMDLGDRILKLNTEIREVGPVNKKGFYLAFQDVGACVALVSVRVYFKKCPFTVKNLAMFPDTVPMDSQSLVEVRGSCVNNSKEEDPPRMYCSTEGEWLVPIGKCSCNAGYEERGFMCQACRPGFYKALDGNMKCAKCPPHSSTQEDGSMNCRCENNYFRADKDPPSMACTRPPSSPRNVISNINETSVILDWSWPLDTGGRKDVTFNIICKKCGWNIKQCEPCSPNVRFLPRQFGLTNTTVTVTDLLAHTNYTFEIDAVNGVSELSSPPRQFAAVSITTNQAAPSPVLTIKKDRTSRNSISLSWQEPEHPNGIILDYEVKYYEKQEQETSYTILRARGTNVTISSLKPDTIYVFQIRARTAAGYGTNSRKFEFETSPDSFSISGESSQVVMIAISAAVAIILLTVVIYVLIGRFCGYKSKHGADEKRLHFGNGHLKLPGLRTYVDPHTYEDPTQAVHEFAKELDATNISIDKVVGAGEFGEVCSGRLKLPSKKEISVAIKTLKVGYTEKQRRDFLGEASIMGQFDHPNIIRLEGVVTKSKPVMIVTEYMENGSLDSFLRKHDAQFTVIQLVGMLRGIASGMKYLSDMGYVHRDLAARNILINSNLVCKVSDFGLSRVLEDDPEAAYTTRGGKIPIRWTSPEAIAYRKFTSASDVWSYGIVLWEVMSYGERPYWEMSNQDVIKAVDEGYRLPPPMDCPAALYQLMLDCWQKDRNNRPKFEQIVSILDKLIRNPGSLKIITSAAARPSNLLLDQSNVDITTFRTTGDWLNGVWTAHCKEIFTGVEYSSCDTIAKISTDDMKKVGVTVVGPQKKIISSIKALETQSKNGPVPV
- condition: at 1 µM
measureName: residual activity
Form entry: enter the amount, then its unit.

Below is a list of compounds. For each, state its recorded residual activity.
1. CCCCc1c(-c2ccc(O)cc2)[nH]c2nccnc12
2. Cn1sc(=O)n(Cc2ccccc2)c1=O
3. O=C(O)/C=C/c1cc(Br)c(Br)c(Br)c1Br
4. CC(C)c1nn(-c2c(Cl)cccc2Cl)c2nc(Cc3ccc(OCCO)cc3)[nH]c(=O)c12
5. Nc1ncnc2c1cnn2-c1ccccc1
6. O=C1Nc2ccc(Cl)cc2/C1=C/c1cc(Cl)c(O)c(Cl)c1

["72%", "87%", "101%", "94%", "100%", "91%"]

----------
- systemUnderTest: Receptor-interacting serine/threonine-protein kinase 2 (Homo sapiens) (UniProt O43353)
- Sequence (O43353 whole entry): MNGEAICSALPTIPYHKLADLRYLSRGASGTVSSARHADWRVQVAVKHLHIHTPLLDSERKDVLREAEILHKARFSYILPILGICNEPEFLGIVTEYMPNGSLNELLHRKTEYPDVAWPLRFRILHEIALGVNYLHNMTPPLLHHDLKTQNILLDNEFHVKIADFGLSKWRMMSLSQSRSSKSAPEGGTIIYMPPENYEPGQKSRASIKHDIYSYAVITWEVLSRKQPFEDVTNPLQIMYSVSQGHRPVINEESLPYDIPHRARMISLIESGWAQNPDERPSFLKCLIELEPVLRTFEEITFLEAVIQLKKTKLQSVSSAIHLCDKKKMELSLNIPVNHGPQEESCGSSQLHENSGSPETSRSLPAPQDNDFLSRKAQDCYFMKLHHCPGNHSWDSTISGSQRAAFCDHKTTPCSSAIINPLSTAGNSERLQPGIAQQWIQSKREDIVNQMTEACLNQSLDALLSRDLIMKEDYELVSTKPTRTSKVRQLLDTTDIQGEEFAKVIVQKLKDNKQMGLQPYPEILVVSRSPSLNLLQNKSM
- condition: at 1 µM
- Description: Millipore: Percentage of residual kinase activity of RIPK2 at 1uM relative to control. Control inhibitor: Phosphoric acid* at 0.3uM. Buffer: 8 mM MOPS pH 7.0, 0.2 mM EDTA
So basically, the class depends on measured residual activity, and the ranges are small value (below 40%), mid value (40% to below 90%), large value (90% or more)

Below, 5 molecules whose answers are already recorded.
>>> labelvalue("O=C1NC(=O)c2c1c1c3ccccc3[nH]c1n1cncc21")
"mid value"
>>> labelvalue("COc1cc2ncnc(Nc3cccc(Cl)c3)c2cc1OC")
"small value"
>>> labelvalue("O=C1NC(=O)C(c2cn(CCCO)c3ncccc23)=C1c1cnccn1")
"large value"
>>> labelvalue("CC(C)[C@H](CO)Nc1nc(Nc2cc(N)cc(Cl)c2)c2ncn(C(C)C)c2n1")
"mid value"
>>> labelvalue("O=C(c1ccccc1)c1ccc(N2CCOCC2)cc1O")
"large value"

Lab note: sort "Nc1nccc(-c2c(-c3ccc(F)cc3)ncn2C2CCNCC2)n1" into the matching residual activity band. mid value

Lab note: sort "CC(C)(C)n1nc(Cc2cccc3ccccc23)c2c(N)ncnc21" into the matching residual activity band. small value

Lab note: sort "O=C(O)/C=C/c1cc(Br)c(Br)c(Br)c1Br" into the matching residual activity band. large value

Lab note: sort "O=C(c1cc2cc(O)ccc2[nH]1)c1cc2cc(O)ccc2[nH]1" into the matching residual activity band. small value

Lab note: sort "COc1cc2c(cc1OC)-c1n[nH]c(Nc3cccc(F)c3)c1C2" into the matching residual activity band. small value

Lab note: sort "COc1cc2nccc(Oc3ccc(NC(=S)NC(=O)c4ccccc4C)cc3)c2cc1OC" into the matching residual activity band. mid value

Lab note: sort "Nc1ncnc2[nH]nc(Nc3ccc(F)cc3)c12" into the matching residual activity band. mid value

Lab note: sort "COc1ccc(Cl)cc1NC(=O)Nc1cc(C)nc2ccccc12" into the matching residual activity band. large value

Lab note: sort "CC(C)(C)c1nc2c3ccc(F)cc3c3c(=O)[nH]ccc3c2[nH]1" into the matching residual activity band. small value

----------
Would you kindly list residual activity for each of these molecules?
- systemUnderTest: LIM domain kinase 1 (Homo sapiens)
- condition: at 10 µM
Numbers only, in %.

>>> recordedmeasurement("O=C1Nc2ccccc2/C1=C\\c1c(Cl)[nH]c2ccccc12")
71

Below is a list of molecules. For each, state its recorded residual activity.
1. O=C(Nc1nc2ccccc2n1CCN1CCOCC1)c1cccc([N+](=O)[O-])c1
2. c1ccc(-c2cnc(Nc3ccc(OCCN4CCCC4)cc3)s2)cc1

1. 88
2. 16

----------
- systemUnderTest: Protein kinase C alpha type (Homo sapiens) (UniProt P17252)
- condition: at 10 µM
Would you kindly list residual activity for each of these molecules?
Give bare numbers, in %.

Reference set, count: 3
>>> recordedmeasurement("CC(C)(C)n1nc(Cc2cccc3ccccc23)c2c(N)ncnc21")
93
>>> recordedmeasurement("NC(=O)c1ccc(-c2nc(-c3ccc4c(c3)OCCO4)c(-c3ccccn3)[nH]2)cc1")
96
>>> recordedmeasurement("NCCNc1ncc(C(N)=O)c(Nc2cccc(C(F)(F)F)c2)n1")
8

Below is a list of molecules. For each, state its recorded residual activity.
1. c1ccc(-c2cnc(Nc3ccc(OCCN4CCCC4)cc3)s2)cc1
2. CC(C)[C@H](CO)Nc1nc(Nc2cc(N)cc(Cl)c2)c2ncn(C(C)C)c2n1
3. Cn1c2ccccc2c2c3c(c4c5ccccc5n(CCC#N)c4c21)CNC3=O
4. O=C1NC(=O)c2c1c1c3ccccc3[nH]c1n1cncc21
5. O=C1C(Cl)=C(N2C(=O)CCC2=O)C(=O)c2ccccc21
6. O=C(Nc1nc2ccccc2n1CCN1CCOCC1)c1cccc([N+](=O)[O-])c1

1: 110; 2: 97; 3: 3; 4: 84; 5: 3; 6: 102

Below is a list of molecules. For each, state its recorded residual activity.
1. COc1cc2nccc(Oc3ccc(NC(=O)Nc4cc(C)on4)c(Cl)c3)c2cc1OC
2. O=c1cc(N2CCNCC2)oc2c(-c3ccccc3)cccc12
3. O=C1Cc2c([nH]c3ccc([N+](=O)[O-])cc23)-c2ccccc2N1
4. CC(C)(C)c1nc2c3ccc(F)cc3c3c(=O)[nH]ccc3c2[nH]1
5. Nc1ncnc2c1c(-c1ccc(Oc3ccccc3)cc1)cn2C1CCCC1

101
102
105
62
98

Below is a list of molecules. For each, state its recorded residual activity.
1. Cn1sc(=O)n(Cc2ccccc2)c1=O
2. CCCC(=O)Oc1ccc2[nH]c(C(=O)c3cc4ccccc4[nH]3)cc2c1
3. O=C(CCCc1ccc(-c2ccccc2F)cc1)Nc1ccc(O)cc1
4. COc1ccc(CNC(=O)Nc2ncc([N+](=O)[O-])s2)cc1

[3, 108, 108, 101]
